System: Jurkat
Assay: cells
Conditions: Homo sapiens
pIC50: −log10 of the molar value.
measured-metric: pIC50

A: CN1C(=O)[C@@H](Cc2c[nH]c3c(Cl)c(F)ccc23)N(C=O)C1=O
B: C[C@@H](Oc1cc(-c2cnn(C3CCNCC3)c2)cnc1N)c1c(Cl)ccc(F)c1Cl
Recorded pIC50 values differ for A and B ; which one is higher? Mark your selection by writing its label.
A
(A: 6.73, B: 5.62)

----------
Biological target: Receptor-interacting serine/threonine-protein kinase 1 (Homo sapiens)
Sequence (Q13546 whole entry): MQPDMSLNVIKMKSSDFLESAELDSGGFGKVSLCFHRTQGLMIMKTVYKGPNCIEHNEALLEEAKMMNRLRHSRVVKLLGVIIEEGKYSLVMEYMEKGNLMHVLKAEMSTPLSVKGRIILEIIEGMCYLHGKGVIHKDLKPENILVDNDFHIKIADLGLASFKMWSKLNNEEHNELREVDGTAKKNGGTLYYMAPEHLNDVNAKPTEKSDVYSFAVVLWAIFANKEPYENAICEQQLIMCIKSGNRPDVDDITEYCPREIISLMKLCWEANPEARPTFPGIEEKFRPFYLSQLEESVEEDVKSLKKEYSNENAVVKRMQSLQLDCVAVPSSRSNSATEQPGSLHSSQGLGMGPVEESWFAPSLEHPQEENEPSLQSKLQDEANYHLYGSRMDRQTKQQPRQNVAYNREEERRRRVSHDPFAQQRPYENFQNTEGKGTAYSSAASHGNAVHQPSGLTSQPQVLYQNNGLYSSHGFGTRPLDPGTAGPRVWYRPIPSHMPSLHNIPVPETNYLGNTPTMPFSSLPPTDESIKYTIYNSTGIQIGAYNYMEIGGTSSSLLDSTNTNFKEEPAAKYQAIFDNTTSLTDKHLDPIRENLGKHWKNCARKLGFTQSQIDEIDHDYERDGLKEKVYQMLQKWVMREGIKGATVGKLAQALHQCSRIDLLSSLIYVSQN
measured-metric: pKd
The meaning of pKd here: minus log10 of the concentration in molar units.

// query pKd value for entry `O=C(Nc1cn2cc(-c3cnc4c(c3)N(C(=O)OC3CCOCC3)CC4)ccc2n1)C1CC1`
8.06

----------
Test system: L929
Experiment: cells
Settings: Mus musculus, L929, 24 h
measured-metric: EC50 (nM)
Give just the number in nM; leave the unit off.

molecule="CC(=O)NC1=NC2C=CC(c3cnc4ccn(C(=O)OC5CCCCC5)c4c3)=CC2S1 (configuration not stated)" tested_target=L929 recorded_measurement=26

// query EC50 value for entry `O=C(NC1CCOCC1)c1nsc2ncc(-c3ccc4nc(NC(=O)C5CC5)sc4c3)cc12`
1.9

----------
Target: Receptor-interacting serine/threonine-protein kinase 3 (Homo sapiens, UniProt Q9Y572)
Sequence (Q9Y572 whole entry): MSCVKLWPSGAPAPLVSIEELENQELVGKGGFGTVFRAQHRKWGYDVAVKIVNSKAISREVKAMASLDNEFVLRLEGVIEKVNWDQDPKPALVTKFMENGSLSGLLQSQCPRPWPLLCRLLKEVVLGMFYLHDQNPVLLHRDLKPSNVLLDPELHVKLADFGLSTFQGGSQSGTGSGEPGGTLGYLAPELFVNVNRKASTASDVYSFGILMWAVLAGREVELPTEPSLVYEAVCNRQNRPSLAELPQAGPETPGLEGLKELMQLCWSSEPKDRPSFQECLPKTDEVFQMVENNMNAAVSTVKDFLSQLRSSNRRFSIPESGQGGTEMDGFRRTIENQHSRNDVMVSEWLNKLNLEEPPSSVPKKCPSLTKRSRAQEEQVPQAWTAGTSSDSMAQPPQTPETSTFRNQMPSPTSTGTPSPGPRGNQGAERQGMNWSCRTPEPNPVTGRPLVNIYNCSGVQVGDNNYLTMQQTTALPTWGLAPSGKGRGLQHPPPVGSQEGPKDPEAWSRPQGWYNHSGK
measured-metric: pIC50
The meaning of pIC50 here: minus log10 of the concentration in molar units.

// query pIC50 value for entry `CNC(=O)c1cc(Oc2ccc(NC(=O)Nc3cc(C(C)(C)C)nn3-c3ccc4ncccc4c3)c(F)c2)ccn1`
7.73

----------
Assay: cells
Details: Homo sapiens, HT-29, 1 h
measured-metric: EC50 (µM)

P: COc1cc(/C=C/C(=O)N2CCC=CC2=O)cc(OC)c1OC
Q: CCCCNc1nc2ccc([N+](=O)[O-])cc2[nH]1
Of P and Q , whose reported EC50 is numerically smaller? Mark your selection by writing its label.
Q
(Q: 1.7 µM, P: 6.41 µM)

----------
Target: Aurora kinase A (Homo sapiens, UniProt O14965)
Sequence (O14965 whole entry): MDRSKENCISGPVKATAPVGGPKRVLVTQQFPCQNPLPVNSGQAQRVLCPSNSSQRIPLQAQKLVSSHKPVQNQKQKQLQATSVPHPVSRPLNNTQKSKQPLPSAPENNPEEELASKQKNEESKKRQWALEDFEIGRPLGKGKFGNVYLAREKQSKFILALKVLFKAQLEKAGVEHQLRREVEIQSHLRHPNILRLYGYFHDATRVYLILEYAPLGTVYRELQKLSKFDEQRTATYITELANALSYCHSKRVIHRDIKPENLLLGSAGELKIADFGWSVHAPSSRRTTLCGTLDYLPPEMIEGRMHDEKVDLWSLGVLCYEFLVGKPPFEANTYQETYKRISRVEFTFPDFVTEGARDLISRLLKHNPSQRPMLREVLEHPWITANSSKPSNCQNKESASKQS
measured-metric: pIC50
The meaning of pIC50 here: minus log10 of the concentration in molar units.

// query pIC50 value for entry `Cc1cc(Nc2cc(N3CCNCC3)nc(Nc3ccc(NC(=O)C4CC4)cc3)n2)n[nH]1`
6.37

----------
Biological target: Eukaryotic translation initiation factor 2-alpha kinase 3 (Homo sapiens)
Sequence (Q9NZJ5 whole entry): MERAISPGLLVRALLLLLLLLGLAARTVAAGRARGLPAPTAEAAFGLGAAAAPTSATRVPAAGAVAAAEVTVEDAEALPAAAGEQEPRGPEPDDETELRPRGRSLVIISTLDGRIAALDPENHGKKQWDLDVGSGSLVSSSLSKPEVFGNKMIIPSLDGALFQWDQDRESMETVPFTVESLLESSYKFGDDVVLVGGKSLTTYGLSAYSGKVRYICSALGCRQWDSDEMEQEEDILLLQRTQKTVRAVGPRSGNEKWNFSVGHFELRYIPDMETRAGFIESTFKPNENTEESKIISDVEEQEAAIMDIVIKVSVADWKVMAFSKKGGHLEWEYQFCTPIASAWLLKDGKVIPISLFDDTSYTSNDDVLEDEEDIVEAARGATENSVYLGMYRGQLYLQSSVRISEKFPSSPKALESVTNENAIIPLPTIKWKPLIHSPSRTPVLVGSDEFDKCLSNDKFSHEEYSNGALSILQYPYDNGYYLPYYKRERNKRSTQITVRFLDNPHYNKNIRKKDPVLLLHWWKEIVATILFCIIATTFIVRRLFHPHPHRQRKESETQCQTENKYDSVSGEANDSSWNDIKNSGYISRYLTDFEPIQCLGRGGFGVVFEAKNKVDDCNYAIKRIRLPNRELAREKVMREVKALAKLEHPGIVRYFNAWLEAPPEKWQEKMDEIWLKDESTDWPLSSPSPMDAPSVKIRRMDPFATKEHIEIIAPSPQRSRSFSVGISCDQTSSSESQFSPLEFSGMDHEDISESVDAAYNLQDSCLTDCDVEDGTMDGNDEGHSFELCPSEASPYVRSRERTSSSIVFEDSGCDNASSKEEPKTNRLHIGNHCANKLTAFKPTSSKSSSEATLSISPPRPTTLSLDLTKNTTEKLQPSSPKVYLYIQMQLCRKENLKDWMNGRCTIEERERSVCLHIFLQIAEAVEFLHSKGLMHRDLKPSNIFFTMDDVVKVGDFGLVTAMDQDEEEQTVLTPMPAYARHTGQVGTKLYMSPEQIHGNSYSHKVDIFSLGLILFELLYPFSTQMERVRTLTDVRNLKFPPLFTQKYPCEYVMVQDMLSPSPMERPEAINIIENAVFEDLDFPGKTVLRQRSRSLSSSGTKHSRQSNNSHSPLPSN
pIC50: −log10 of the molar value.
measured-metric: pIC50

A: Cc1cccc(CC(=O)N2CCc3cc(-c4cn(C)c5ncnc(N)c45)ccc32)n1
B: Cn1cc(-c2ccc3c(c2)CCN3C(=O)Cc2cccc(C(F)(F)F)n2)c2c(N)ncnc21
Of A and B , whose reported pIC50 is numerically smaller? Mark your selection by writing its label.
A
(A: 8.01, B: 8.42)

----------
Biological target: Regulator of chromosome condensation (Homo sapiens)
Sequence (P18754 whole entry): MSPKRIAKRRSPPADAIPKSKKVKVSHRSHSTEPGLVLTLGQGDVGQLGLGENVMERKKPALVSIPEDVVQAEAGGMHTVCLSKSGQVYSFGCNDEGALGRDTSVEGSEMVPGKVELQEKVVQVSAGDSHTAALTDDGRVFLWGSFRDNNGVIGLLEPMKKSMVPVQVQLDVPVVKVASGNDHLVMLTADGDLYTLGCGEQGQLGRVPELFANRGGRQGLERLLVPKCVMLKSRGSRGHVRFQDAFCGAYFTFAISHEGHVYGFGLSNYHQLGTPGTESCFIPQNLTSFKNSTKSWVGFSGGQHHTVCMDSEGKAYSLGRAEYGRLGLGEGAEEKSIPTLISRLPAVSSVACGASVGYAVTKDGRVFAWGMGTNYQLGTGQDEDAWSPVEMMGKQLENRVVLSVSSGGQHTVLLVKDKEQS
measured-metric: EC50 (nM)
Give just the number in nM; leave the unit off.

// query EC50 value for entry `CNC(=O)c1cc(Oc2ccc(NC(=O)Nc3cc(C(C)(C)C)nn3-c3ccc4ncccc4c3)c(F)c2)ccn1`
18.7
